- Target Or Test System: human Fc (human)
- Experiment Description: ELISA, negative control
Endpoint Label: optical density (OD)
Field: numeric (OD). Do not append units.

Use these answered entries as a reference point.
binder="366_B07 (antibody, V domains shown) VH: EVQLLESGGGLVQPGGSLRLSCAASGFTFSDYGMNWVRQAPGKGLEWVSGINYNGGYTSYADSVKGRFTISRDNSKNTLYLQMNSLRAEDTAVYYCARGANWHDTHLDYWGQGTLVTVSS VL: DIQMTQSPSSLSASVGDRVTITCRASQSIVSYLNWYQQKPGKAPKLVIYATTSRASGVPSRFSGSGSGTDFTLTISSLQPEDFATYYCQQSYNSPLTFGGGTKVEIK" endpoint_label="optical density" unit_symbol=OD test_result=0.215
binder="367_F10 (antibody, V domains shown) VH: EVQLLESGGGLVQPGGSLRLSCAASGFTFDSYGMNWVRQAPGKGLEWVSGINYNSGYTSYADSVKGRFTISRDNSKNTLYLQMNSLRAEDTAVYYCARAATWHDTHLDYWGQGTLVTVSS VL: DIQMTQSPSSLSASVGDRVTITCRASQSILTYLNWYQQKPGKAPKLLIYAATSRASGVPSRFSGSGSGTDFTLTISSLQPEDFATYYCQQSYDTPLTFGGGTKVEIK" endpoint_label="optical density" unit_symbol=OD test_result=0.253
binder="369_D07 (antibody, V domains shown) VH: EVQLLESGGGLVQPGGSLRLSCAASGFTFSSYGMNWVRQAPGKGLEWVSGINYNGGYKSYADSVKGRFTISRDNSKNTLYLQMNSLRAEDTAVYYCARGANWHDTHLDYWGQGTLVTVSS VL: DIQMTQSPSSLSASVGDRVTITCRASQSIVSYLNWYQQKPGKAPKLVIYAATSRASGVPSRFSGSGSGTDFTLTISSLQPEDFATYYCQQSYDLPLTFGGGTKVEIK" endpoint_label="optical density" unit_symbol=OD test_result=0.363
binder="371_C12 (antibody, V domains shown) VH: EVQLLESGGGLVQPGGSLRLSCAASGFTFSSYSMNWVRQAPGKGLEWVAGINYNSGYKSYADSVKGRFTISRDNSKNTLYLQMNSLRAEDTAVYYCARGANWHDTHLDYWGQGTLVTVSS VL: DIQMTQSPSSLSASVGDRVTITCRASQSIVSYVNWYQQKPGKAPKLLIYAATSRASGVPSRFSGSGSGTDFTLTISSLQPEDFATYYCQQSYDTPLTFGGGTKVEIK" endpoint_label="optical density" unit_symbol=OD test_result=0.544
binder="371_B11 (antibody, V domains shown) VH: EVQLLESGGGLVQPGGSLRLSCAASGFTFSSYSMHWVRQAPGKGLEWVASINYNSGYTSYADSVKGRFTISRDNSKNTLYLQMNSLRAEDTAVYYCARAATWHDTHLDYWGQGTLVTVSS VL: DIQMTQSPSSLSASVGDRVTITCRASQSILTYLNWYQQKPGKAPKLLIYAATSRASGVPSRFSGSGSGTDFTLTISSLQPEDFATYYCQQSYELPLTFGGGTKVEIK" endpoint_label="optical density" unit_symbol=OD test_result=0.549

## Input Recall and state the measured optical density for 373_F02 (antibody, V domains shown) VH: EVQLLESGGGLVQPGGSLRLSCAASGFTFDSYSMNWVRQAPGKGLEWVSGINYNSGYKSYADSVKGRFTISRDNSKNTLYLQMNSLRAEDTAVYYCARSATWHDTHLDYWGQGTLVTVSS VL: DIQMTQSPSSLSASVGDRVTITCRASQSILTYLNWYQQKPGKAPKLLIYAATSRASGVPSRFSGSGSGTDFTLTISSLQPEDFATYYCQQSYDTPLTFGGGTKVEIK .
## Output 0.175

## Input Give the measured optical density for 367_A06 (antibody, V domains shown) VH: EVQLLESGGGLVQPGGSLRLSCAASGFTFDSYGMNWVRQAPGKGLEWVASINYNGGYKGYADSVKGRFTISRDNSKNTLYLQMNSLRAEDTAVYYCARGANWHDTHLDYWGQGTLVTVSS VL: DIQMTQSPSSLSASVGDRVTITCRASQSILSYVNWYQQKPGKAPKLLIYAATSRHSGVPSRFSGSGSGTDFTLTISSLQPEDFATYYCQQSYDTPLTFGGGTKVEIK
## Output 0.378

## Input For the binder 365_H04 (antibody, V domains shown) VH: EVQLLESGGGLVQPGGSLRLSCAASGFTFSDYGMNWVRQAPGKGLEWVSGINYNSGYKSYADSVKGRFTISRDNSKNTLYLQMNSLRAEDTAVYYCARSATWHDTHLDYWGQGTLVTVSS VL: DIQMTQSPSSLSASVGDRVTITCRASQSILTYVNWYQQKPGKAPKLVIYAATSRASGVPSRFSGSGSGTDFTLTISSLQPEDFATYYCQQSYESPLTFGGGTKVEIK , give its measured optical density value.
## Output 0.371

## Input Find the measured optical density of 373_D12 (antibody, V domains shown) VH: EVQLLESGGGLVQPGGSLRLSCAASGFTFDSYSMNWVRQAPGKGLEWVSSINYNSGYKGYADSVKGRFTISRDNSKNTLYLQMNSLRAEDTAVYYCARGANWHDTHLDYWGQGTLVTVSS VL: DIQMTQSPSSLSASVGDRVTITCRASQSILSYVNWYQQKPGKAPKLLIYAATSRASGVPSRFSGSGSGTDFTLTISSLQPEDFATYYCQQSYSLPLTFGGGTKVEIK and report it.
## Output 0.224

## Input Look up optical density of 368_G08 (antibody, V domains shown) VH: EVQLLESGGGLVQPGGSLRLSCAASGFTFDDYGMNWVRQAPGKGLEWVSSINYNSGYKSYADSVKGRFTISRDNSKNTLYLQMNSLRAEDTAVYYCARSATWHDTHLDYWGQGTLVTVSS VL: DIQMTQSPSSLSASVGDRVTITCRASQSIVSYVNWYQQKPGKAPKLLIYAATSRHSGVPSRFSGSGSGTDFTLTISSLQPEDFATYYCQQSYNNPLTFGGGTKVEIK and report it.
## Output 0.329
